# target.of.assay: NACHT, LRR and PYD domains-containing protein 3 (Homo sapiens, UniProt Q96P20)
# Sequence (Q96P20 whole entry, the tested form may be a part): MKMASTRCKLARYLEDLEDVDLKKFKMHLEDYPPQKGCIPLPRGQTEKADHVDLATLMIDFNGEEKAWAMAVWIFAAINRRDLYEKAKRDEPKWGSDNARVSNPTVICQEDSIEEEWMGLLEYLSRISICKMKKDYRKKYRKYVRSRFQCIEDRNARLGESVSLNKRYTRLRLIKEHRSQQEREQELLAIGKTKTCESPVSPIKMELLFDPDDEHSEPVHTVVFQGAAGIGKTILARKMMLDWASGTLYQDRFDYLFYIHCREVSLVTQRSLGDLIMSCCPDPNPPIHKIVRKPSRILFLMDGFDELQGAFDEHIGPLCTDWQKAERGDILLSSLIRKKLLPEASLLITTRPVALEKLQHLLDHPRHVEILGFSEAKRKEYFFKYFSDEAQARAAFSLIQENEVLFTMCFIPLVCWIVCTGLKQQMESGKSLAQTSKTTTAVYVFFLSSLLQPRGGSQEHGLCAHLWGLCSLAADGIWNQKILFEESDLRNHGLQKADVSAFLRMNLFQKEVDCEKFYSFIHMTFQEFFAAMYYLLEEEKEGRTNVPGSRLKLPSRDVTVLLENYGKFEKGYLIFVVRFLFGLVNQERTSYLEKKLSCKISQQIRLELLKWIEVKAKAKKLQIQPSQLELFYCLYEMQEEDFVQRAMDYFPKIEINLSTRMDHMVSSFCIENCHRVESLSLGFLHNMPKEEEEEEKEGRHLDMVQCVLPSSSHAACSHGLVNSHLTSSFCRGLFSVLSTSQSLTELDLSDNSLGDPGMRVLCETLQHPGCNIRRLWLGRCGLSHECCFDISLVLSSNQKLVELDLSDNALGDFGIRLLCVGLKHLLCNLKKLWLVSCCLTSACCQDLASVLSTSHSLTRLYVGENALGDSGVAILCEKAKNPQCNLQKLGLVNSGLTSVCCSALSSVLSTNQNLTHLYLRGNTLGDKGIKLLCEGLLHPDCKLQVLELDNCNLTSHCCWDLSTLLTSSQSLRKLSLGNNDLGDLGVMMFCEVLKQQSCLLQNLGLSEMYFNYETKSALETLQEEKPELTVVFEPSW
# assay.explanation: Inhibition of recombinant human NLRP3 ATPase assessed as reduction in ADP formation preincubated for 10 mins followed by ATP addition and measured after 40 mins by ADP-Glo assay
parameter: pIC50
pIC50 here is simply -log10 of the concentration when that concentration is written in mol/L.

[ask] Request the reported pIC50 associated with "C=C(Cc1ccccc1Cl)C(=O)NCCc1ccc(S(N)(=O)=O)cc1"
[reply] 4.13

====

# target.of.assay: NACHT, LRR and PYD domains-containing protein 3 (Mus musculus, UniProt Q8R4B8)
# Sequence (Q8R4B8 whole entry, the tested form may be a part): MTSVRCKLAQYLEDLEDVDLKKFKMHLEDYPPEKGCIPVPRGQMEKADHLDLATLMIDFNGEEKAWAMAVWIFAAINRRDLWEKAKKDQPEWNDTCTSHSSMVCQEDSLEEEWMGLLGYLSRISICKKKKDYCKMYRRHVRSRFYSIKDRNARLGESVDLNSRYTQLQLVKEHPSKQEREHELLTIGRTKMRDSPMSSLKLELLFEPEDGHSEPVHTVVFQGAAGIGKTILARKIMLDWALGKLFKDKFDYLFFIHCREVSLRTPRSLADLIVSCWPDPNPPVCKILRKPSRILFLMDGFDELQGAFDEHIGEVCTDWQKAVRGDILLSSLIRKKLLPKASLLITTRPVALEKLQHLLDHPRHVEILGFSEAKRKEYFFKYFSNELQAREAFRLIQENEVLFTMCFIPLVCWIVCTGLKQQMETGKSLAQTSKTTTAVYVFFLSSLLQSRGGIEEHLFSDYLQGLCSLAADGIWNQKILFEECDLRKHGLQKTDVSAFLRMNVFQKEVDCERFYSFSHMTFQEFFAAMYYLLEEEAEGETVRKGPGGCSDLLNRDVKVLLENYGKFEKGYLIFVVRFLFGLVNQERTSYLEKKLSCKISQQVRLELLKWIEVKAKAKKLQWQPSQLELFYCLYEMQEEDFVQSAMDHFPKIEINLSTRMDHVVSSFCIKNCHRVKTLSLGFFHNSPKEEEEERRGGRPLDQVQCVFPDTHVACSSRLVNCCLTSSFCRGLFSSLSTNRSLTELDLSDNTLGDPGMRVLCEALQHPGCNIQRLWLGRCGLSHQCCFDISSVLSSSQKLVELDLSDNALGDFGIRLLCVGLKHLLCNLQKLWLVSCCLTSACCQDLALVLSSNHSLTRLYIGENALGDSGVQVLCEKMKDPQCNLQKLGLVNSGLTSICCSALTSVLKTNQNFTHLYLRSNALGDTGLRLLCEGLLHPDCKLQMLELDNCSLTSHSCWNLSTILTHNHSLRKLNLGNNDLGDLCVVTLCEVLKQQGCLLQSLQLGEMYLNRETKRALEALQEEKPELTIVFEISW
# assay.explanation: Inhibition of NLRP3 inflammasome activation in LPS-primed mouse J774A.1 cells assessed as reduction in IL-1beta level preincubated for 1 hr followed by addition of ATP and measured after 30 mins by ELISA method
parameter: pIC50
pIC50 here is simply -log10 of the concentration when that concentration is written in mol/L.

[ask] Request the reported pIC50 associated with "COc1ccc2c(c1)C(=O)N(c1ccccc1)C2=O"
[reply] 5.30

[ask] Quick one: "O=c1[nH]c(-c2ccc([N+](=O)[O-])cc2)nc2ccccc12"
[reply] 5.30
